Exercise: for every item that follows, state its recorded half-life.
# method-description: Metabolic stability in rat liver microsomes assessed as half life
# Format: ADME, Microsome
Numbers only, in min.

# molecule, half-life [min]
records = [
    ("COc1ccc2[nH]c([S+]([O-])Cc3ncc(C)c(OC)c3C)nc2c1 (configuration not stated) [OMEPRAZOLE]", 38.5),
]

Query molecule follows.
Asked: Given the molecule C[C@H]1CN(CC[C@H]2CC[C@H](NC(=O)N(C)C)CC2)CCc2ccc(Cl)cc21 , what is its reported half-life?
Given back: 23.2

* * *

# method-description: Metabolic stability in human liver microsomes assessed as half life
# Assay type: ADME, Microsome
Exercise: for every item that follows, state its recorded half-life.
Answers are plain numbers, in min.

# compound, value-unit, half-life
data = [
    ("C[C@H]1CN(CC[C@H]2CC[C@H](NC(=O)N(C)C)CC2)CCc2ccc(Cl)cc21", "min", 32.7),
]

Query compound follows.
Asked: Given the compound COc1ccc2c(c1)[C@]13CCCC[C@@H]1[C@H](C2)N(C)CC3 [DEXTROMETHORPHAN] , what is its reported half-life?
Given back: 23.2

* * *

Exercise: for every item that follows, state its recorded inhibition.
# study-system: Adrenergic receptor alpha-1 (Rattus norvegicus) (UniProt P15823+P23944+P43140)
# method-description: Displacement of [3H]-prazosin from adrenergic alpha1 in rat cerebral cortex at 10 uM relative to control
# Format: tissue-based
Answer format: number, then unit.

Solved cases below.
# smiles, study-system, inhibition
measured = [
    ("C[C@H]1CN(CC[C@H]2CC[C@H](NC(=O)[C@@H]3CCCO3)CC2)CCc2ccc(Cl)cc21", "Adrenergic receptor alpha-1 (Rattus norvegicus) (UniProt P15823+P23944+P43140)", "36.4%"),
    ("C[C@H]1CN(CC[C@H]2CC[C@H](N3C(=O)[C@@H]4[C@H](C3=O)[C@@H]3C=C[C@H]4C3)CC2)CCc2ccc(Cl)cc21", "Adrenergic receptor alpha-1 (Rattus norvegicus) (UniProt P15823+P23944+P43140)", "74.4%"),
]

Query molecule follows.
Asked: Given the molecule CCCC(=O)N[C@H]1CC[C@H](CCN2CCc3ccc(Cl)cc3[C@@H](C)C2)CC1 , what is its reported inhibition?
Given back: 18.7%

* * *

# study-system: Adrenergic receptor alpha-1 (Rattus norvegicus) (UniProt P15823+P23944+P43140)
# method-description: Displacement of [3H]-prazosin from adrenergic alpha1 in rat cerebral cortex at 10 uM relative to control
# Type: tissue-based
Exercise: for every item that follows, state its recorded inhibition.

# compound, inhibition
measured = [
    ("C[C@H]1CN(CC[C@H]2CC[C@H](N3C(=O)[C@@H]4[C@@H]5CC[C@@H](C5)[C@@H]4C3=O)CC2)CCc2ccc(Cl)cc21", "79.2%"),
    ("C[C@@H]1CN(CC[C@H]2CC[C@H](NC(=O)N(C)C)CC2)CCc2ccc(Cl)cc21", "48.3%"),
]

I would be grateful if you could provide inhibition for each of the following entries.
1. C[C@H]1CN(CC[C@H]2CC[C@H](NC(=O)C3CCCCC3)CC2)CCc2ccc(Cl)cc21
2. CCN(CC)C(=O)N[C@H]1CC[C@H](CCN2CCc3ccc(Cl)cc3[C@@H](C)C2)CC1
3. CC1CN(CC[C@H]2CC[C@H](NC(=O)N(C)C)CC2)CCc2ccc(Cl)cc21 (mixture of isomers)
4. C[C@H]1CN(CC[C@H]2CC[C@H](NC(=O)N(C)C)CC2)CCc2ccc(Cl)cc21
5. C[C@H]1CN(CC[C@H]2CC[C@H](N3C(=O)c4ccccc4C3=O)CC2)CCc2ccc(Cl)cc21

Given back:
1. 35.3%
2. 29.1%
3. 38%
4. 44.1%
5. 37.2%

I would be grateful if you could provide inhibition for each of the following entries.
1. C[C@H]1CN(CC[C@H]2CC[C@H](NC(=O)C3CC3)CC2)CCc2ccc(Cl)cc21
2. C[C@H]1CN(CC[C@H]2CC[C@H](N3C(=O)CCC3=O)CC2)CCc2ccc(Cl)cc21

Given back:
57.6%
62.1%

* * *

# study-system: D(2) dopamine receptor (Homo sapiens, UniProt P14416)
# Sequence (P14416 whole entry): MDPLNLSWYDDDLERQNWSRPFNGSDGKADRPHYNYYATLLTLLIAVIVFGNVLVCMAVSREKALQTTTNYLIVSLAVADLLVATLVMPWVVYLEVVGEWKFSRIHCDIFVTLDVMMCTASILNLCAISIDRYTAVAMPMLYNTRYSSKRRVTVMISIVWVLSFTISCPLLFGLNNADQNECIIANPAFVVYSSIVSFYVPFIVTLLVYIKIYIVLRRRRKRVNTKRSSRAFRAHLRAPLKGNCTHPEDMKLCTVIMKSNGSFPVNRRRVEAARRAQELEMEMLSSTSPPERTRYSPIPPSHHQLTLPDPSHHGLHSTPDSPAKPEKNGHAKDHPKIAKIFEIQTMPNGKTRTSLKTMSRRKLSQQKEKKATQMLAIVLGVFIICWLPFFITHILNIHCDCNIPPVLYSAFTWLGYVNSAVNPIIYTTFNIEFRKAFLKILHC
# method-description: Displacement of [3H]-spiperone from recombinant human D2L receptor expressed in CHO cells
outcome-measure: pKi
Answers are plain numbers, as −log10 of the molar value.

# smiles, pKi
data = [
    ("C[C@H]1CN(CC[C@H]2CC[C@H](NC(=O)[C@@H]3CCCN3)CC2)CCc2ccc(Cl)cc21", 7.60),
    ("C[C@H]1CN(CC[C@H]2CC[C@H](NC(=O)N(C)c3ccccc3)CC2)CCc2ccc(Cl)cc21", 6.72),
]

I would be grateful if you could provide pKi for each of the following entries.
1. CCCC(=O)N[C@H]1CC[C@H](CCN2CCc3ccc(Cl)cc3[C@@H](C)C2)CC1
2. C[C@H]1CN(CC[C@H]2CC[C@H](NC(=O)N3CCCC3)CC2)CCc2ccc(Cl)cc21
3. C[C@H]1CN(CC[C@H]2CC[C@H](N3C(=O)CC4(CCCC4)CC3=O)CC2)CCc2ccc(Cl)cc21
4. C[C@H]1CN(CC[C@H]2CC[C@H](N3C(=O)[C@@H]4[C@H](C3=O)[C@@H]3C=C[C@H]4C3)CC2)CCc2ccc(Cl)cc21
5. C[C@@H]1CN(CC[C@H]2CC[C@H](NC(=O)N(C)C)CC2)CCc2ccc(Cl)cc21
6. C[C@H]1CN(CC[C@H]2CC[C@H](NC(=O)C3CCCCC3)CC2)CCc2ccc(Cl)cc21

Given back:
7.08
8.20
7.92
7.36
6.54
7.00

* * *

# study-system: D(3) dopamine receptor (Homo sapiens, UniProt P35462)
# Sequence (P35462 whole entry): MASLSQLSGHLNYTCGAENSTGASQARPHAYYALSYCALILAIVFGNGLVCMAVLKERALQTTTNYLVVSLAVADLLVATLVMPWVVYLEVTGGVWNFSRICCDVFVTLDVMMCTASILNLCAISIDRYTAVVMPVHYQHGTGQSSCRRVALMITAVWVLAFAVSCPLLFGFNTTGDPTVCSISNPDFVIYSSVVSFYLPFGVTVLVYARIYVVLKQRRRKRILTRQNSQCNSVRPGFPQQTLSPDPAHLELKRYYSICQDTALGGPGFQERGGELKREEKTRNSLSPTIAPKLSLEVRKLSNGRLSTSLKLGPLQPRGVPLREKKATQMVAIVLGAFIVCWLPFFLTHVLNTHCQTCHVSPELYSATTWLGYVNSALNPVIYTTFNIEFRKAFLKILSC
# method-description: Displacement of [3H]methyl-spiperone from recombinant human D3 receptor expressed in CHO cells
outcome-measure: Ki (nM)
Answers are plain numbers, in nM.

Solved cases below.
# smiles, study-system, Ki, nM
rows = [
    ("C[C@H]1CN(CC[C@H]2CC[C@H](NC(=O)N3CCCC3)CC2)CCc2ccc(Cl)cc21", "D(3) dopamine receptor (Homo sapiens, UniProt P35462)", 1.1),
    ("C[C@H]1CN(CC[C@H]2CC[C@H](NC(=O)C3CC3)CC2)CCc2ccc(Cl)cc21", "D(3) dopamine receptor (Homo sapiens, UniProt P35462)", 8.2),
    ("C[C@H]1CN(CC[C@H]2CC[C@H](NC(=O)[C@@H]3CCCN3)CC2)CCc2ccc(Cl)cc21", "D(3) dopamine receptor (Homo sapiens, UniProt P35462)", 9.5),
    ("C[C@H]1CN(CC[C@H]2CC[C@H](N3C(=O)CCC3=O)CC2)CCc2ccc(Cl)cc21", "D(3) dopamine receptor (Homo sapiens, UniProt P35462)", 191),
    ("C[C@H]1CN(CC[C@H]2CC[C@H](N3C(=O)[C@@H]4[C@@H]5CC[C@@H](C5)[C@@H]4C3=O)CC2)CCc2ccc(Cl)cc21", "D(3) dopamine receptor (Homo sapiens, UniProt P35462)", 3.3),
]

I would be grateful if you could provide Ki for each of the following entries.
1. C[C@H]1CN(CC[C@H]2CC[C@H](NC(=O)N(C)c3ccccc3)CC2)CCc2ccc(Cl)cc21
2. C[C@H]1CN(CC[C@H]2CC[C@H](N3C(=O)CC4(CCCC4)CC3=O)CC2)CCc2ccc(Cl)cc21
3. C[C@H]1CN(CC[C@H]2CC[C@H](NC(=O)[C@@H]3CCCO3)CC2)CCc2ccc(Cl)cc21

Given back:
[17.2, 1.2, 19.1]

* * *

# study-system: 5-hydroxytryptamine receptor 1A (Homo sapiens)
# Sequence (P08908 whole entry): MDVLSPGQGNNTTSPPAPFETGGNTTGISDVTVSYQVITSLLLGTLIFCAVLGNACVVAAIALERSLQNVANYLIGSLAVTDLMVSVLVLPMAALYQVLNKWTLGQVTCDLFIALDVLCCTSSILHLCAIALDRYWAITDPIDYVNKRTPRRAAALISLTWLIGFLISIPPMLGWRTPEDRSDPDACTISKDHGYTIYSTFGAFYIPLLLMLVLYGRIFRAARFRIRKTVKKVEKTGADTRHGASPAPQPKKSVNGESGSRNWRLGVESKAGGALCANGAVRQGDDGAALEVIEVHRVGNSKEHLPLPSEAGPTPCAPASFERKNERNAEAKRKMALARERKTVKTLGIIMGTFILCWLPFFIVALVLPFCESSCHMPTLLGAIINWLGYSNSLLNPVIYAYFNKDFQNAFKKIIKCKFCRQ
# method-description: Displacement of [3H]OH-DPAT from recombinant human 5-HT1A receptor expressed in human HEK293 cells
outcome-measure: pKi
Numbers only, as −log10 of the molar value.

Solved cases below.
# smiles, study-system, outcome-measure, measurement
rows = [
    ("C[C@H]1CN(CC[C@H]2CC[C@H](N3C(=O)CCC3=O)CC2)CCc2ccc(Cl)cc21", "5-hydroxytryptamine receptor 1A (Homo sapiens)", "pKi", 7.03),
    ("C[C@H]1CN(CC[C@H]2CC[C@H](N3C(=O)[C@@H]4[C@H](C3=O)[C@@H]3C=C[C@H]4C3)CC2)CCc2ccc(Cl)cc21", "5-hydroxytryptamine receptor 1A (Homo sapiens)", "pKi", 7.64),
]

I would be grateful if you could provide pKi for each of the following entries.
1. C[C@H]1CN(CC[C@H]2CC[C@H](N3C(=O)[C@@H]4[C@@H]5CC[C@@H](C5)[C@@H]4C3=O)CC2)CCc2ccc(Cl)cc21
2. C[C@H]1CN(CC[C@H]2CC[C@H](NC(=O)N(C)C)CC2)CCc2ccc(Cl)cc21
3. C[C@H]1CN(CC[C@H]2CC[C@H](NC(=O)C3CC3)CC2)CCc2ccc(Cl)cc21
4. C[C@H]1CN(CC[C@H]2CC[C@H](NC(=O)N3CCCC3)CC2)CCc2ccc(Cl)cc21

Given back:
7.60
7.84
6.72
8.28

I would be grateful if you could provide pKi for each of the following entries.
1. C[C@H]1CN(CC[C@H]2CC[C@H](NC(=O)[C@@H]3CCCN3)CC2)CCc2ccc(Cl)cc21
2. C[C@H]1CN(CC[C@H]2CC[C@H](NC(=O)[C@@H]3CCCO3)CC2)CCc2ccc(Cl)cc21

Given back:
[7.13, 7.01]
